system: T. gondii RH tachyzoites; experiment: Influence on T. gondii proliferation ([3H]uracil incorporation) in infected Vero cells; format: cell-based, Toxoplasma gondii; settings: Toxoplasma gondii, Vero, RH tachyzoites in Vero cells, [3H]uracil incorporation, highest concentration tested 125 µg/mL; read-out: IC50 (50% inhibition of T. gondii proliferation in vitro)
quantity_kind: IC50 (µg/mL)
API: value field is a number in µg/mL; no unit string.

Use the examples below as a reference point.
Cc1ccc(NC(=S)NNC(=O)c2[nH]cnc2C)cc1Cl; 18.6
Cc1cccc(NC(=S)NNC(=O)c2[nH]cnc2C)c1; 37.1
CCOc1ccc(NC(=S)NNC(=O)c2[nH]cnc2C)cc1; 95.3
CCN(CC)c1ccc(NC(=S)NNC(=O)c2[nH]cnc2C)cc1; 25.7

# evaluate next
Looking up `COc1cccc(NC(=S)NNC(=O)c2[nH]cnc2C)c1` , I see its IC50 listed as 79.7

###

Assay: MTT cell viability (cytotoxicity) assay on L929 cells
Assay type: cell-based, mouse
Conditions: mouse, 15.63 µg/mL, 24 h, % of untreated cells
Experimental: Cells were trypsinized twice a week, and seeded at density 1 × 10^6 per T25 cell culture flask, and incubated for 24-48 h at 37 °C and 10% CO2 to achieve a confluent monolayer. […] The final concentration of DMSO in compounds dilutions was not higher than 1.00%. […] Optical density was read on the ELISA reader (Multiskan EX, Labsystems, Vienna, VA, USA) at 570 nm. The results were expressed as the percentage of viability compared to untreated cells. […]
quantity_kind: viability at 24 h, 15.63 µg/mL

Form field viability at 24 h, 15.63 µg/mL, entry `Cc1nc[nH]c1C(=O)NNC(=S)NCCCl` : 97.1%

###

test: MTT cell viability (cytotoxicity) assay on L929 cells; assay type: cell-based, mouse; details: mouse, L929 mouse fibroblast cells, 31.25 µg/mL, 24 h, % of untreated cells
Response field label takes True when viability at 24 h, 31.25 µg/mL is strictly below 90% and False in all other cases.

Field: example entries. Status: answers known.
Cc1nc[nH]c1C(=O)NNC(=S)Nc1cc(F)ccc1F; False
COc1cccc(NC(=S)NNC(=O)c2[nH]cnc2C)c1; True
Cc1cccc(NC(=S)NNC(=O)c2[nH]cnc2C)c1; True
Cc1nc[nH]c1C(=O)NNC(=S)Nc1cccc(Cl)c1; True
CC(=O)c1cccc(NC(=S)NNC(=O)c2[nH]cnc2C)c1; False
Cc1ccccc1NC(=S)NNC(=O)c1[nH]cnc1C; False
Cc1nc[nH]c1C(=O)NNC(=S)Nc1cccc(F)c1; False
Cc1nc[nH]c1C(=O)NNC(=S)Nc1ccccc1[N+](=O)[O-]; False
COc1ccccc1NC(=S)NNC(=O)c1[nH]cnc1C; True
CCOc1ccc(NC(=S)NNC(=O)c2[nH]cnc2C)cc1; False

Is viability at 24 h, 31.25 µg/mL strictly under 90% for the entry `Cc1nc[nH]c1C(=O)NNC(=S)Nc1ccc(N(C)C)cc1` ?
True

###

assay: MTT cell viability (cytotoxicity) assay on L929 cells; format: cell-based, mouse; settings: mouse, 7.81 µg/mL, 24 h, % of untreated cells
quantity_kind: viability at 24 h, 7.81 µg/mL (%)
Reply with just the number (in %).

Input `Cc1nc[nH]c1C(=O)NNC(=S)NCCCl` . Output viability at 24 h, 7.81 µg/mL: 98.3

###

experiment: MTT cell viability (cytotoxicity) assay on L929 cells; assay type: cell-based, mouse; conditions: mouse, L929 mouse fibroblast cells, 125.00 µg/mL, 24 h, % of untreated cells
viability at 24 h, 125 µg/mL class ranges: class 1 (below 70%), class 2 (70% to below 80%), class 3 (80% or more)

Example cases with answers are listed next.
COc1ccc(NC(=S)NNC(=O)c2[nH]cnc2C)cc1OC [Compound 13]; class 3
Cc1nc[nH]c1C(=O)NNC(=S)Nc1cccc([N+](=O)[O-])c1 [Compound 3]; class 2
COc1ccc(NC(=S)NNC(=O)c2nc[nH]c2C)cc1 [Compound 7]; class 3
Cc1nc[nH]c1C(=O)NNC(=S)NCc1ccccc1 [Compound 8]; class 1
CC(=O)c1cccc(NC(=S)NNC(=O)c2[nH]cnc2C)c1 [Compound 12]; class 3

Let's switch to this molecule now.
Which of the defined bands does the recorded viability at 24 h, 125 µg/mL of Cc1ccc(NC(=S)NNC(=O)c2[nH]cnc2C)cc1Cl [Compound 14] sit within?
class 1

###

experiment: MTT cell viability (cytotoxicity) assay on L929 cells; assay type: cell-based, mouse; conditions: mouse, L929 mouse fibroblast cells, 62.50 µg/mL, 24 h, % of untreated cells
Use viability at 24 h, 62.5 µg/mL to assign classes; range list: LOW: < 80%; MID: ≥ 80% and < 90%; HIGH: ≥ 90%

CCN(CC)c1ccc(NC(=S)NNC(=O)c2[nH]cnc2C)cc1; LOW
Cc1nc[nH]c1C(=O)NNC(=S)Nc1cccc(Cl)c1; LOW
Cc1nc[nH]c1C(=O)NNC(=S)Nc1cccc(F)c1; LOW
CC(=O)c1cccc(NC(=S)NNC(=O)c2[nH]cnc2C)c1; HIGH

Note: place this compound into its band. Item: `Cc1nc[nH]c1C(=O)NNC(=S)Nc1cc(F)ccc1F`
MID

Category of `COc1ccc(NC(=S)NNC(=O)c2[nH]cnc2C)cc1OC` :
HIGH

Which class does `COc1ccc(NC(=S)NNC(=O)c2nc[nH]c2C)cc1` fall in?
MID

The entry to classify is `Cc1cccc(NC(=S)NNC(=O)c2[nH]cnc2C)c1` ; which class holds it?
LOW

Category of `Cc1ccc(NC(=S)NNC(=O)c2[nH]cnc2C)cc1Cl` :
LOW

Which class does `CCOc1ccc(NC(=S)NNC(=O)c2[nH]cnc2C)cc1` fall in?
HIGH

Note: place this compound into its band. Item: `Cc1ccc(NC(=S)NNC(=O)c2[nH]cnc2C)cc1`
LOW

###

assay: MTT cell viability (cytotoxicity) assay on L929 cells; assay type: cell-based, mouse; conditions: mouse, 62.50 µg/mL, 24 h, % of untreated cells
quantity_kind: viability at 24 h, 62.5 µg/mL (%)
Number only, in %; omit the unit.

So, Cc1nc[nH]c1C(=O)NNC(=S)NCCCl [Compound 9] ? Its viability at 24 h, 62.5 µg/mL was 95.6

###

test system: T. gondii RH tachyzoites; test: Influence on T. gondii proliferation ([3H]uracil incorporation) in infected Vero cells; assay type: cell-based, Toxoplasma gondii; conditions: Toxoplasma gondii, Vero, RH tachyzoites in Vero cells, [3H]uracil incorporation, highest concentration tested 125 µg/mL; read-out: IC50 (50% inhibition of T. gondii proliferation in vitro)
Reported IC50 values for a set of compounds
Express the result in µg/mL but write the number alone.

Solved cases (3 shown):
COc1ccccc1NC(=S)NNC(=O)c1[nH]cnc1C; 33.1
CC(=O)c1cccc(NC(=S)NNC(=O)c2[nH]cnc2C)c1; 95.5
Cc1nc[nH]c1C(=O)NNC(=S)Nc1c(C(C)C)cccc1C(C)C; 97.7

// recorded IC50 for `Cc1nc[nH]c1C(=O)NNC(=S)Nc1ccccc1[N+](=O)[O-]` : 43

The recorded IC50 for entry `Cc1nc[nH]c1C(=O)NNC(=S)Nc1cccc([N+](=O)[O-])c1` equals 14.8

Sample `Cc1nc[nH]c1C(=O)NNC(=S)Nc1cccc(Cl)c1` ; IC50 observed: 25.7

// field: IC50; key: `COc1ccc(NC(=S)NNC(=O)c2nc[nH]c2C)cc1` ; value = 114

The reported value for `Cc1nc[nH]c1C(=O)NNC(=S)Nc1ccc([N+](=O)[O-])cc1` in terms of IC50 is 21.6

Record `Cc1nc[nH]c1C(=O)NNC(=S)Nc1cc(F)ccc1F` , field IC50: 53.1

###

test: MTT cell viability (cytotoxicity) assay on L929 cells; type: cell-based, mouse; conditions: mouse, L929 mouse fibroblast cells, 15.63 µg/mL, 24 h, % of untreated cells
Examples of compounds with documented viability at 24 h, 15.63 µg/mL follow.
Include the unit right after the number.

Worked set:
Cc1nc[nH]c1C(=O)NNC(=S)Nc1cccc([N+](=O)[O-])c1; 94.6%
Cc1ccc(NC(=S)NNC(=O)c2[nH]cnc2C)cc1Cl; 76.6%
COc1ccccc1NC(=S)NNC(=O)c1[nH]cnc1C; 89%
Cc1nc[nH]c1C(=O)NNC(=S)Nc1ccccc1[N+](=O)[O-]; 96.7%

Input `Cc1nc[nH]c1C(=O)NNC(=S)Nc1cccc(F)c1` . Output viability at 24 h, 15.63 µg/mL: 99.8%

Entry under test: `COc1ccc(NC(=S)NNC(=O)c2[nH]cnc2C)cc1OC` . Its viability at 24 h, 15.63 µg/mL was 103%

Per the record, `CCOc1ccc(NC(=S)NNC(=O)c2[nH]cnc2C)cc1` has viability at 24 h, 15.63 µg/mL of 112%

So, `Cc1ccc(NC(=S)NNC(=O)c2[nH]cnc2C)cc1` ? Its viability at 24 h, 15.63 µg/mL was 82%

`CC(=O)c1cccc(NC(=S)NNC(=O)c2[nH]cnc2C)c1` has a reported viability at 24 h, 15.63 µg/mL of 103%

Note to self: viability at 24 h, 15.63 µg/mL recorded for `Cc1nc[nH]c1C(=O)NNC(=S)NCc1ccccc1` was 96.5%
